# METHOD DESCRIPTION: CCTE_Mundy_HCI_Cortical_NOG_NeuriteCount: CCTE's Neurite Outgrowth Assay in rat cortical cells for Neurite Count, Mundy Lab (AID 2284212);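 further: cells fixed about two days after chemical exposure began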
Calls of active or inactive are those of the source. How the source made its calls: active means hit-call score of the fitted dose curve at least 0.9, where 1 is the maximum; inactive means score below 0.9.
Reply using exactly one outcome from true for active, false for inactive

Consider the following illustrative entries.
INSERT INTO assay_data (compound, class) VALUES
  ('NC(=O)c1ccc(N)nc1', 'true'),
  ('CCOCn1c(-c2ccc(Cl)cc2)c(C#N)c(Br)c1C(F)(F)F', 'true');

Q. Which result was noted for this compound in the test: CC(C)[C@@H](Nc1ccc(C(F)(F)F)cc1Cl)C(=O)OC(C#N)c1cccc(Oc2ccccc2)c1 (stereo partly specified)
A. false

Q. Recorded test call requested for Cc1ccccc1OP(=O)(Oc1ccccc1C)Oc1ccccc1C
A. true

Q. Identify the outcome logged in this assay for the compound shown: Cc1cc(C(F)(C(F)(F)F)C(F)(F)F)ccc1NC(=O)c1cccc(I)c1C(=O)NC(C)(C)CS(C)(=O)=O
A. false

Q. What did the test return for CS(=O)(=O)c1ccc(C(=O)C2C(=O)CCCC2=O)c(Cl)c1COCC(F)(F)F ?
A. false
